tested on: HOP-62 NSCLC; assay: NCI-60 one-dose screen, 48 h (100 = growth as untreated, 0 = no growth, -100 = all killed); settings: 10 µM unless noted
This is part of a sample that, as a whole, favours compounds with a hit. Of some 83,000 tested, about 20% had one in any assay.
growth strictly less than 90% = label 1. Otherwise label 0.

Strictly below 90% in growth? Nc1cc(-c2c[nH]c3ccc(Cl)cc23)nc2cc(-c3c[nH]c4ccc(Cl)cc34)nn12
label 1

Now consider COc1cc2cc(Oc3ccc(NC(=O)c4cccc(C(F)(F)F)c4)cc3)c(C)nc2cc1OCCN1CCCCC1 and answer again.
label 0

Now consider Cc1c(Nc2nnc(SCC(=O)Nc3sc4c(c3C#N)CCCC4)s2)c(=O)n(-c2ccccc2)n1C and answer again.
label 0

Now consider Fc1ccc(-c2cc3nc(C(Cl)Cl)nc(-c4ccc(Cl)cc4)n3n2)cc1 and answer again.
label 1

Now consider COc1cccc(-c2nn(-c3ccccc3)cc2-c2ccnc(N3CCN(C(=O)c4ccccc4)CC3)c2)c1 and answer again.
label 0

Now consider Clc1ccc2c(NCCCn3ccnc3)c3oc4ccc(Cl)cc4c3nc2c1 and answer again.
label 1

---

Task for the reader: assign each of the following compounds its reported growth.
Tested on: HOP-62 NSCLC
Assay: NCI-60 one-dose screen, 48 h (100 = growth as untreated, 0 = no growth, -100 = all killed)
Conditions: 10 µM unless noted
Procedure: Growth inhibition of the HOP-62 human Non-Small Cell Lung tumor cell line is measured as a screen for anti-cancer activity. Cells are grown in 96 well plates and exposed to the test compound for 48 hours. Compounds are tested at a single concentration, which is 10^-5 M for most compounds. The reported endpoint is percent growth (GI% or GIPRCNT), where numbers from 0 - 100% represent growth inhibition, and numbers from -100% - 0 represent cell death. […]
The panel holds about 83,000 compounds, 20% with a hit somewhere; the sample as a whole holds those more often.
Report only the number, with the unit % understood.

Can you look up growth on HOP-62 NSCLC for COc1cc(-c2nc3ccc(-c4nnc(SCC(=O)Nc5ccc(C(=O)/C=C/c6ccc(Cl)cc6)cc5)o4)cc3[nH]2)cc(OC)c1OC ?
101

Now consider CCOC(=O)c1c(Nc2ccccc2)nn2c(N)c(C#N)c(-c3ccc(OC)cc3)nc12 and answer again.
61.3

Now consider C#Cc1nc(C2=C(C)C(O)/C(=N/O)C2)cs1 (centres undefined) and answer again.
111

Now consider CSc1ccc2c(c1)N(C(=O)/C(C#N)=C/c1c[nH]c3ccccc13)c1ccccc1S2 and answer again.
59.9

Now consider CN1C(=O)N(c2ccccc2)C2N=C(N/N=C/c3ccccc3)SC21 (centres undefined) and answer again.
39

Now consider CC(C)(C)Nc1nc2c(OCCc3ccccc3)cccn2c1-c1ccc(Cl)cc1 and answer again.
32.4

Now consider Cc1sc2c(c1C)c(=O)nc1c(-c3nc(-c4ccc(F)cc4)no3)n[nH]n12 and answer again.
91.8

Now consider Cc1nc(-c2cc3ccccc3oc2=O)ccc1C(=O)/C=C/c1ccc(Cl)c(Cl)c1 and answer again.
107

Now consider Cn1ccnc1C(=O)/C=C/c1ccc(NC(=O)Nc2ccc(F)cc2)cc1 and answer again.
31

---

System: UO-31 renal
Experiment: NCI-60 one-dose screen, 48 h
Conditions: 10 µM unless noted
Protocol: Growth inhibition of the UO-31 human tumor cell line is measured as a screen for anti-cancer activity. Cells are grown in 96 well plates and exposed to the test compound for 48 hours. Compounds are tested at a single concentration, which is 10^-5 M for most compounds. The reported endpoint is percent growth (GI% or GIPRCNT), where numbers from 0 - 100% represent growth inhibition, and numbers from -100% - 0 represent cell death. For example, a value of 40 represents 60% growth inhibition. […]
About 83,000 compounds went through this panel and 20% of them were active in at least one assay; those are over-represented in the sample as a whole. The source made the active and inactive calls. How the source made its calls: active means growth percent below 10; inactive means the rest.
Select the correct class. Options are label 1 (active), label 0 (inactive) and nothing else.

Dear colleague, could you share the recorded outcome for COc1ccc(N/N=C/c2c(-c3ccc(S(C)(=O)=O)cc3)nc3ccccn23)cc1 when you have a moment?
label 0

Now consider N/C(=N\c1nc2c(Cl)cc(Cl)cc2s1)C(Cl)(Cl)Cl and answer again.
label 0

Now consider Cn1c(SCC(=O)Nc2ccc(-c3nc4ccc([N+](=O)[O-])cc4[nH]3)cc2)nc2ccccc2c1=O and answer again.
label 0

Now consider CC1=C(C)C(=O)C(Nc2ccccc2)=C(Cl)C1=O and answer again.
label 0

Now consider COc1ccc(/C=N/NC(=O)c2[nH]c3ccc(Br)cc3c2-c2ccccc2)s1 and answer again.
label 0

Now consider O=[N+]([O-])c1ccc(O)c2ncccc12 and answer again.
label 0

Now consider Nc1nc(N)c2c(n1)NC(c1ccc(F)cc1)CC(c1ccc(Nc3nc(NCCO)nc(Nc4ccc(Cl)cc4)n3)cc1)=N2 (centres undefined) and answer again.
label 0

Now consider CS(=O)(=O)c1ccc(-n2cc(/C=C/C(=O)c3ccc(NC(=O)CO[N+](=O)[O-])cc3)c(-c3ccc(Cl)cc3)n2)cc1 and answer again.
label 0

Now consider CC(C)(O)c1cncc(-c2ccc3ncnc(N4CCc5cc(F)c(Cl)cc54)c3c2)c1 and answer again.
label 1
